These measurements were taken from patent US20100310640A1.

Molecular target: T1, HLA-DR DRB1*0405 (human)
T1 chain 1: not shown
T1 chain 2: not shown
Experiment: radioligand inhibition, purified HLA-DR
Conditions: remark: other sources report otherwise

# Binder, Unit Spec, IC50
rows = [
    ("SSYLSGANLNLSCHS [CEA.603 peptide 9012.0137]", "µM", 7.82),
    ("INGIPQQHTQVLFIA [CEA.629 peptide 9019.0139]", "µM", 0.942),
    ("DNSIRPEELLQMELL [Cyclin D1.129]", "µM", 16.5),
    ("AKGLQSLPTHDPSPL [Peptide 9019.0098]", "µM", 3.86),
]
